- target-entity: Homeobox protein Hox-A13 (Mus musculus) (UniProt Q62424)
- Sequence (Q62424 whole entry, looked up): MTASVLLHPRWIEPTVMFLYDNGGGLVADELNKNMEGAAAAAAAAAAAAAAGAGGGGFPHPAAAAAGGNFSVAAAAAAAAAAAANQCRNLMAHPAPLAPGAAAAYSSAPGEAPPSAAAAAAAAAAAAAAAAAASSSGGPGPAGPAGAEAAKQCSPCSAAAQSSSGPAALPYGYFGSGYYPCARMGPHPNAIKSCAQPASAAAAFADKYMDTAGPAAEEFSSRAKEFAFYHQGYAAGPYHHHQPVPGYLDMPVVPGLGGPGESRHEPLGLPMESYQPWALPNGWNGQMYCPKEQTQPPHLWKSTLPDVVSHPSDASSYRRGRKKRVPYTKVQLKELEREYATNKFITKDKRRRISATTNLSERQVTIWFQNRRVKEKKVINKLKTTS
- assay-procedure: inhibitors of HoxA13-DNA binding, primary screen, biochemical, fluorescence polarization, labeled oligonucleotide (AID 1185)
- applied-conditions: 15 min, called active from +8 up or from −8 down
Calls of active or inactive are those of the source.
Please state which outcome applies, choosing from active, inactive

{"columns": ["compound", "cat"],
 "data": [
  ["CC(CO)N1C(=O)[C@@H]2[C@H]3C(=O)OCC=C[C@H]3OC23C=CCN(C(C)(C)C)C(=O)[C@@H]13 (stereo not given in full)", "inactive"],
  ["C[C@@H]1NC(=O)[C@@]23C(=O)N[C@@H](Cc4ccccc4)C2[C@H](C)[C@@]2(C)O[C@H]2C3/C=C/C/C=C\\CNC(=O)[C@@H]2CCCN2C1=O (stereo not given in full)", "inactive"],
  ["CC(CO)N1C(=O)[C@@H]2[C@H]3C(=O)OCC=C[C@H]3OC23C=CCN(Cc2ccccc2)C(=O)[C@@H]13 (stereo not given in full)", "inactive"]
]}

Now look at this one.
Task: Hi team, can someone confirm the assay call for CCCCN1CC=CC23O[C@@H]4/C=C\CCC(C)OC(=O)C4[C@H]2C(=O)N(C(CO)C(C)C)[C@@H]3C1=O (stereo not given in full) ?
Output: inactive
